Cited source: patent US11547681B2

- Run Description: Simulated intestinal fluid (SIF) stability in the presence of various enzymes
- Assay type: in vitro ADME
- Condition Notes: SIF + Chymotrypsin, 15 min, 1 μM
Metric: % Remaining of Initial (n = 1) (%)
Could you give me the number in %? Just the number is fine.

Record `CCCCCCCCCCCCCCCC(=O)NCCOC(=O)CCC` , field % Remaining of Initial (n = 1): 78

Quick note, % Remaining of Initial (n = 1) for CCCCC/C=C\C/C=C\CCCCCCCC(=O)OCC(COC(=O)CCC(=O)OCCNC(=O)CCCCCCCCCCCCCCC)OC(=O)CCCCCCC/C=C\C/C=C\CCCCC (stereo not shown) landed at 82

Note to self: % Remaining of Initial (n = 1) recorded for CCCCCCCCCCCCCCCC(=O)NCCOC(=O)CCC(=O)OCC(COC(=O)CCCCCCC)OC(=O)CCCCCCC (stereo not shown) [Compound I-3, PEA-Succinate-Glycerol-Di-Caprylic] was 102

Field % Remaining of Initial (n = 1) (entry CCCCCCCCCCCCCCCC(=O)NCCOC(=O)CCC(=O)OCC(COC(=O)CCC)OC(=O)CCC (stereo not shown) ) reads 84

###

- Run Description: in vitro
- Condition Notes: male, Sprague-Dawley, rat, s9, Clint, control compound
Metric: microsomal CLint (µL/min/mg)
The answer is to be given in µL/min/mg; state only the numeric part.

// recorded microsomal CLint for O=c1ccc2ccc(O)cc2o1 [Compound 7-HC, 7-hydroxycoumarin, reference compound] : 20.1

###

- Run Description: in vitro
- Condition Notes: male, Beagle, dog, microsomes, CLint
Metric: microsomal CLint at 1 μM

Lab note: `CCCCCCCCCCCCCCCC(=O)NCCOC(=O)CCC` gave microsomal CLint at 1 μM of 581 µL/min/mg

// sample `CCCCC/C=C\C/C=C\CCCCCCCC(=O)OCCNC(=O)CCCCCCCCCCCCCCC` , its microsomal CLint at 1 μM was < 23.1 µL/min/mg

Entry CCCCCCCCCCCCCCCC(=O)NCCOC(=O)CCC(=O)OCC(O)CO (stereo not shown) , microsomal CLint at 1 μM reported as > 1380 µL/min/mg

# microsomal CLint at 1 μM (molecule: CCCCCCCCCCCCCCCC(=O)NCCOC(=O)CCC(=O)OCC(COC(=O)CCC)OC(=O)CCC (stereo not shown) ) is 665 µL/min/mg

response.value for `CCCCCCCCCCCCCCCC(=O)NCCOC(=O)CCC(=O)OC(CO)CO` (field: microsomal CLint at 1 μM) = > 1380 µL/min/mg

Entry CCCCCCCCCCCCCCCC(=O)NCCOC(=O)CCC(=O)OCC(COC(=O)CCCCCCC)OC(=O)CCCCCCC (stereo not shown) [Compound I-3, PEA-Succinate-Glycerol-Di-Caprylic] , microsomal CLint at 1 μM reported as < 23.1 µL/min/mg

// microsomal CLint at 1 μM value for CCCCC/C=C\C/C=C\CCCCCCCC(=O)OCC(COC(=O)CCC(=O)OCCNC(=O)CCCCCCCCCCCCCCC)OC(=O)CCCCCCC/C=C\C/C=C\CCCCC (stereo not shown) : 36.2 µL/min/mg

Sample `CC/C=C\C/C=C\C/C=C\C/C=C\C/C=C\CCCC(=O)OCCNC(=O)CCCCCCCCCCCCCCC` ; microsomal CLint at 1 μM observed: < 23.1 µL/min/mg

Consider `CCCCCCCCCCCCCCCC(=O)NCCOC(=O)CCC(=O)OC(COC(=O)CCC)COC(=O)CCC` . Its measured microsomal CLint at 1 μM is > 139 µL/min/mg

`CCCCCCCCCCCCCCCC(=O)NCCOC(=O)CCC(=O)OC[C@H]1O[C@@](CO)(O[C@H]2O[C@H](CO)[C@@H](O)[C@H](O)[C@H]2O)[C@@H](O)[C@@H]1O` yielded microsomal CLint at 1 μM of 823 µL/min/mg

###

What % Remaining of Initial (n = 1), 120 min was measured for each of the following?
- Run Description: Plasma stability (37° C., pH 7.4), human
- Assay type: in vitro ADME
- Condition Notes: human plasma, test article 1 μM, 37° C., pH 7.4, 120 min
Number only, in %; omit the unit.

Recorded result, CCCCCCCCCCCCCCCC(=O)NCCOC(=O)CCC(=O)OCC(COC(=O)CCCCCCC)OC(=O)CCCCCCC (stereo not shown) [Compound I-3, PEA-Succinate-Glycerol-Di-Caprylic] , % Remaining of Initial (n = 1), 120 min: 77

GET /value?item= `CC/C=C\C/C=C\C/C=C\C/C=C\C/C=C\CCCC(=O)OCCNC(=O)CCCCCCCCCCCCCCC` &field=% Remaining of Initial (n = 1), 120 min returns 69

// recorded % Remaining of Initial (n = 1), 120 min for `CCCCC/C=C\C/C=C\CCCCCCCC(=O)OCCNC(=O)CCCCCCCCCCCCCCC` : 53

Recorded result, `CCCCCCCCCCCCCCCC(=O)NCCOC(=O)CCC` , % Remaining of Initial (n = 1), 120 min: 51

So, CCCCCCCCCCCCCCCC(=O)NCCOC(=O)CCC(=O)OCC(COC(=O)CCC)OC(=O)CCC (stereo not shown) ? Its % Remaining of Initial (n = 1), 120 min was 10

###

Provide the reported half-life at 1 μM of each item.
- Run Description: in vitro
- Condition Notes: male, Beagle, dog, microsomes, Half-life
Express it in min; write the number only.

For this compound ( CCCCCCCCCCCCCCCC(=O)NCCOC(=O)CCC(=O)OCC(COC(=O)CCC)OC(=O)CCC (stereo not shown) ), measured half-life at 1 μM is 2.1

Please fill in: half-life at 1 μM reported for CCCCC/C=C\C/C=C\CCCCCCCC(=O)OCC(COC(=O)CCC(=O)OCCNC(=O)CCCCCCCCCCCCCCC)OC(=O)CCCCCCC/C=C\C/C=C\CCCCC (stereo not shown) = 38

// sample `CCCCCCCCCCCCCCCC(=O)NCCOC(=O)CCC` , its half-life at 1 μM was 2.4

Entry `CCCCCCCCCCCCCCCC(=O)NCCOC(=O)CCC(=O)OC[C@H]1O[C@@](CO)(O[C@H]2O[C@H](CO)[C@@H](O)[C@H](O)[C@H]2O)[C@@H](O)[C@@H]1O` , half-life at 1 μM reported as 1.7

###

Exercise: state measured % Remaining of Initial (n = 1), 30 min for each of the compounds provided.
- Run Description: in vitro
- Condition Notes: male, CD-1, mouse, s9, 0.5 h, 1 μM
- Description: Reaction mixture, minus cofactors, was prepared as described below. Test article was added into the reaction mixture at a final concentration of 1 μM. […] Half-lives were calculated using GraphPad software, fitting to a single-phase exponential decay equation. Reaction mixture, minus cofactors, was prepared as described below. […] Half-lives were calculated using GraphPad software, fitting to a single-phase exponential decay equation. […]
Express your answer in %, writing the number without its unit.

`CCCCC/C=C\C/C=C\CCCCCCCC(=O)OCCNC(=O)CCCCCCCCCCCCCCC` yielded % Remaining of Initial (n = 1), 30 min of 99

Recorded % Remaining of Initial (n = 1), 30 min (compound `CC/C=C\C/C=C\C/C=C\C/C=C\C/C=C\CCCC(=O)OCCNC(=O)CCCCCCCCCCCCCCC` ): 59

Just so you know, measured % Remaining of Initial (n = 1), 30 min for CCCCCCCCCCCCCCCC(=O)NCCOC(=O)CCC(=O)OCC(COC(=O)CCCCCCC)OC(=O)CCCCCCC (stereo not shown) [Compound I-3, PEA-Succinate-Glycerol-Di-Caprylic] came out at 78

###

- Run Description: in vitro
- Condition Notes: both, human, s9, 1 h, 1 μM
Metric: % Remaining of Initial (n = 1), 60 min (%)
Number in %, nothing else.

Kindly note the recorded % Remaining of Initial (n = 1), 60 min for `CCCCCCCCCCCCCCCC(=O)NCCOC(=O)CCC` , which is 9.6

Item: `CC/C=C\C/C=C\C/C=C\C/C=C\C/C=C\CCCC(=O)OCCNC(=O)CCCCCCCCCCCCCCC` | % Remaining of Initial (n = 1), 60 min: 45

Looking up `CCCCCCCCCCCCCCCC(=O)NCCOC(=O)CCC(=O)OC[C@H]1O[C@@](CO)(O[C@H]2O[C@H](CO)[C@@H](O)[C@H](O)[C@H]2O)[C@@H](O)[C@@H]1O` , I found its % Remaining of Initial (n = 1), 60 min recorded as 3.8

% Remaining of Initial (n = 1), 60 min reported for this compound `CCCCC/C=C\C/C=C\CCCCCCCC(=O)OCCNC(=O)CCCCCCCCCCCCCCC` : 70

The measured % Remaining of Initial (n = 1), 60 min associated with CCCCCCCCCCCCCCCC(=O)NCCOC(=O)CCC(=O)OCC(COC(=O)CCCCCCC)OC(=O)CCCCCCC (stereo not shown) [Compound I-3, PEA-Succinate-Glycerol-Di-Caprylic] reads 60
